Examples of molecules with documented Muscular blood perfusion Δλ (change of blood perfusion) follow.
# Tested on: muscular blood perfusion
# ASSAY_PROCEDURE: Muscular blood perfusion by fluvography at the cat (i.v.)
# Type: in vivo
# EXPERIMENTAL_CONTEXT: 1 mg/kg i.v.
PROPERTY_MEASURED: Muscular blood perfusion Δλ (change of blood perfusion)

molecule="CC(=O)CCCCn1c(=O)c2c(ncn2C)n(C)c1=O [Sample 8, 1-(5-Oxohexyl)-3,7-dimethylxanthine, reference compound]" data_value=+0.02
molecule=CCCn1cnc2c1c(=O)n(CCCCC(C)=O)c(=O)n2C data_value=+0.13
molecule=CCn1cnc2c1c(=O)n(CCCCC(C)=O)c(=O)n2C data_value=+0.22
